Reference source: patent US20100068215A1

In this section, each of the binders is paired with its reported IC50 (ng/mL), A-204 reporter gene assay, conditioned media.
- tested-target: T1, GDF11 (UniProt O95390 299-407)
- T1 sequence (looked up): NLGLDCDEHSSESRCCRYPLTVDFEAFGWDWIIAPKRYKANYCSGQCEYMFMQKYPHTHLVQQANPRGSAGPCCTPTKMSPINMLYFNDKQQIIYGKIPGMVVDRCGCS
- assay-remarks: cell-based or functional assay
Enter your answer as a number in ng/mL; do not include the unit.

Solved entries:
ActRIIB(20-134)-hFc (Fc fusion) GRGEAETRECIYYNANWELERTNQSGLERCEGEQDKRLHCYASWRNSSGTIELVKKGCWLDDFNCYDRQECVATEENPQVYFCCCEGNFCNERFTHLPEAGGPEVTYEPPPTAPTGGGTHTCPPCPAPELLGGPSVFLFPPKPKDTLMISRTPEVTCVVVDVSHEDPEVKFNWYVDGVEVHNAKTKPREEQYNSTYRVVSVLTVLHQDWLNGKEYKCKVSNKALPVPIEKTISKAKGQPREPQVYTLPPSREEMTKNQVSLTCLVKGFYPSDIAVEWESNGQPENNYKTTPPVLDSDGSFFLYSKLTVDKSRWQQGNVFSCSVMHEALHNHYTQKSLSLSPGK | 45
ActRIIB(20-132)-hFc (Fc fusion, not shown: a dimerising Fc or GST) GRGEAETRECIYYNANWELERTNQSGLERCEGEQDKRLHCYASWRNSSGTIELVKKGCWLDDFNCYDRQECVATEENPQVYFCCCEGNFCNERFTHLPEAGGPEVTYEPPPTAGGG | 87
ActRIIB(24-131)-hFc (Fc fusion, not shown: a dimerising Fc or GST) AETRECIYYNANWELERTNQSGLERCEGEQDKRLHCYASWRNSSGTIELVKKGCWLDDFNCYDRQECVATEENPQVYFCCCEGNFCNERFTHLPEAGGPEVTYEPPPTGGG | 69

In one line, give reported IC50 (ng/mL), A-204 reporter gene assay, conditioned media of the entry ActRIIB(20-128)-hFc (Fc fusion, not shown: a dimerising Fc or GST) GRGEAETRECIYYNANWELERTNQSGLERCEGEQDKRLHCYASWRNSSGTIELVKKGCWLDDFNCYDRQECVATEENPQVYFCCCEGNFCNERFTHLPEAGGPEVTYEPGGG .
130
